Test system: HIV-1
Test: HIV-1 replication in acutely infected H9 lymphocytes (p24 antigen ELISA)
Assay type: cell-based, HIV-1 (IIIB isolate)
Details: Table 1; H9 cells; therapeutic index
The following compounds are listed with their measured T.I. values.

Answered examples (3):
{"Compound": "CC(C)[C@@H]1CC[C@]2(C(=O)O)CC[C@]3(C)[C@H](CC[C@@H]4[C@@]5(C)CC[C@H](OC(=O)CC(C)(C)C(=O)O)C(C)(C)[C@@H]5CC[C@]43C)[C@@H]12", "Target desc": "HIV-1", "T.I.": "14,000-98,000"}
{"Compound": "C=C(C)[C@@H]1CC[C@]2(C(=O)O)CC[C@]3(C)[C@H](CC[C@@H]4[C@@]5(C)CC[C@H](OC(=O)COCC(=O)O)C(C)(C)[C@@H]5CC[C@]43C)[C@@H]12", "Target desc": "HIV-1", "T.I.": "1,172.0"}
{"Compound": "CC(C)[C@@H]1CC[C@]2(C(=O)O)CC[C@]3(C)[C@H](CC[C@@H]4[C@@]5(C)CC[C@H](OC(=O)CC(C)(C)CC(=O)O)C(C)(C)[C@@H]5CC[C@]43C)[C@@H]12", "Target desc": "HIV-1", "T.I.": "1,017.0"}

Which T.I. value is on record for CC(C)[C@@H]1CC[C@]2(C(=O)O)CC[C@]3(C)[C@H](CC[C@@H]4[C@@]5(C)CC[C@H](OC(=O)COCC(=O)O)C(C)(C)[C@@H]5CC[C@]43C)[C@@H]12 [Compound 10, 3-O-diglycolyl-dihydrobetulinic acid] ?
2,344.0

The measurements presented in this section are drawn from patent US5679828A.
